molecular target: human Fc (human); assay: ELISA, negative control
measured_property: optical density (OD)
Note: unit OD is implicit; provide only the numeric part.

Illustrative cases are given below, each with its answer.
367_G08 (antibody, V domains shown) VH: EVQLLESGGGLVQPGGSLRLSCAASGFTFDSYGMNWVRQAPGKGLEWVSNINYNGGYKGYADSVKGRFTISRDNSKNTLYLQMNSLRAEDTAVYYCARSATWHDTHLDYWGQGTLVTVSS VL: DIQMTQSPSSLSASVGDRVTITCRASQSILSYLNWYQQKPGKAPKLLIYAATSRASGVPSRFSGSGSGTDFTLTISSLQPEDFATYYCQQSYENPLTFGGGTKVEIK
0.33
365_G02 (antibody, V domains shown) VH: EVQLLESGGGLVQPGGSLRLSCAASGFTFSDYSMNWVRQAPGKGLEWVSNINYNSGYKGYADSVKGRFTISRDNSKNTLYLQMNSLRAEDTAVYYCARSATWHDTHLDYWGQGTLVTVSS VL: DIQMTQSPSSLSASVGDRVTITCRASQSIVTYLNWYQQKPGKAPKLVIYAVTSLHSGVPSRFSGSGSGTDFTLTISSLQPEDFATYYCQQSYELPLTFGGGTKVEIK
0.325

Proceed to the following item.
### Prompt Note optical density for the binder shown: 369_B05 (antibody, V domains shown) VH: EVQLLESGGGLVQPGGSLRLSCAASGFTFDSYSMNWVRQAPGKGLEWVSGINYNGGYKSYADSVKGRFTISRDNSKNTLYLQMNSLRAEDTAVYYCARGANWHDTHLDYWGQGTLVTVSS VL: DIQMTQSPSSLSASVGDRVTITCRASQSIISYLNWYQQKPGKAPKLLIYAATSLASGVPSRFSGSGSGTDFTLTISSLQPEDFATYYCQQSYDTPLTFGGGTKVEIK
### Response 0.314
